# system.tested: Growth factor receptor-bound protein 2 (Homo sapiens)
# assay: Inhibition of Growth factor receptor bound protein 2 SH2 domain in extracellular binding assay
metric: IC50 (µM)

compound.structure.string: NC(=O)C[C@H](NC(=O)C1(NC(=O)CCc2ccc(CP(=O)(O)O)cc2)CCCCC1)C(N)=O
unit.annotation: µM
IC50: 52.5

I: NC(=O)C[C@@H]1NC(=O)C2(CCCCC2)NC(=O)C[C@@H](c2ccc(CP(=O)(O)O)cc2)NC(=O)CCCNC1=O
II: NC(=O)C[C@@H]1NC(=O)C2(CCCCC2)NC(=O)C[C@@H](c2ccc(CP(=O)(O)O)cc2)NC(=O)C[C@@H](Cc2cccc3ccccc23)CNC1=O
III: NC(=O)C[C@@H]1NC(=O)C2(CCCCC2)NC(=O)C[C@@H](c2ccc(CP(=O)(O)O)cc2)/C=C/C[C@@H](Cc2cccc3ccccc23)CNC1=O
Please list the entries, largest IC50 first. Dear reader, please state the labels in the requested order.
I, II, III
